Test: Half-life in Sprague-Dawley rat at 5 mg/kg, ip
Type: ADME, organism-based
Conditions: in vivo
Metric Name: half-life (h)

[[record]]
smiles_notation = "COc1ccc2c(c1OC)C(=O)O[C@@H]2[C@H]1c2c(c(Br)c3c(c2OC)OCO3)CCN1C(F)(F)F"
unit_label = "h"
val = 5.64


----------
Test: Ratio of drug concentration in Sprague-Dawley rat brain to plasma at 5 mg/kg, ip measured after 0.5 hrs
Assay type: ADME, organism-based
Conditions: read-out: BPR
Metric Name: Kp at 0.5 h

[[record]]
smiles_notation = "COc1ccc2c(c1OC)C(=O)O[C@@H]2[C@H]1c2c(c(Br)c3c(c2OC)OCO3)CCN1C(F)(F)F"
val = 0.349


----------
Test: Drug distribution in Sprague-Dawley rat brain at 5 mg/kg, ip measured after 4 hrs
Assay type: ADME, organism-based
Details: read-out: Ct
Metric Name: concentration at 4 h (ng/g)

[[record]]
smiles_notation = "COc1ccc2c(c1OC)C(=O)O[C@@H]2[C@H]1c2c(c(Br)c3c(c2OC)OCO3)CCN1C(F)(F)F"
metric_name = "concentration at 4 h"
unit_label = "ng/g"
val = 34.5


----------
Test: Permeability of compound incubated for 12 hrs by PAMPA
Type: ADME
Settings: read-out: permeability
Metric Name: Papp at 12 h (×10⁻⁶ cm/s)

[[record]]
molecule = "Cn1nnc2c(C(N)=O)ncn2c1=O [TEMOZOLOMIDE]"
unit_label = "×10⁻⁶ cm/s"
val = 1.47

[[record]]
molecule = "COc1ccc2c(c1OC)C(=O)O[C@@H]2[C@H]1c2c(c(C#N)c3c(c2OC)OCO3)CCN1C(F)(F)F"
unit_label = "×10⁻⁶ cm/s"
val = 12.8

[[record]]
molecule = "COc1ccc2c(c1OC)C(=O)O[C@@H]2[C@H]1c2c(cc3c(c2OC)OCO3)CCN1C(F)(F)F"
unit_label = "×10⁻⁶ cm/s"
val = 18


----------
Assay: Ratio of drug concentration in Sprague-Dawley rat brain to plasma at 5 mg/kg, ip measured after 4 hrs
Assay type: ADME, organism-based
Conditions: read-out: BPR
Metric Name: Kp at 4 h

[[record]]
smiles_notation = "COc1ccc2c(c1OC)C(=O)O[C@@H]2[C@H]1c2c(c(Br)c3c(c2OC)OCO3)CCN1C(F)(F)F"
val = 0.517


----------
Experiment: Permeability of compound incubated for 12 hrs by PAMPA
Assay type: ADME
Details: read-out: permeability
Metric Name: Papp at 12 h

[[record]]
smiles_notation = "COc1ccc2c(c1OC)C(=O)O[C@@H]2[C@H]1c2c(c(Cl)c3c(c2OC)OCO3)CCN1C(F)(F)F"
metric_name = "Papp at 12 h"
val = "16.8 ×10⁻⁶ cm/s"

[[record]]
smiles_notation = "COc1ccc2c(c1OC)C(=O)O[C@@H]2[C@H]1c2c(cc3c(c2OC)OCO3)CCN1C"
metric_name = "Papp at 12 h"
val = "11 ×10⁻⁶ cm/s"

[[record]]
smiles_notation = "COc1ccc2c(c1OC)C(=O)O[C@@H]2[C@H]1c2c(c(I)c3c(c2OC)OCO3)CCN1C(F)(F)F"
metric_name = "Papp at 12 h"
val = "15.8 ×10⁻⁶ cm/s"

[[record]]
smiles_notation = "COc1ccc2c(c1OC)C(=O)O[C@@H]2[C@H]1c2c(c(Br)c3c(c2OC)OCO3)CCN1C(F)(F)F"
metric_name = "Papp at 12 h"
val = "12.1 ×10⁻⁶ cm/s"


----------
Assay: Drug distribution in Sprague-Dawley rat brain at 5 mg/kg, ip measured after 0.5 hrs
Type: ADME, organism-based
Conditions: read-out: Ct
Metric Name: concentration at 0.5 h (ng/g)

[[record]]
smiles_notation = "COc1ccc2c(c1OC)C(=O)O[C@@H]2[C@H]1c2c(c(Br)c3c(c2OC)OCO3)CCN1C(F)(F)F"
metric_name = "concentration at 0.5 h"
val = 35.4


----------
Assay: Drug distribution in Sprague-Dawley rat plasma at 5 mg/kg, ip measured after 4 hrs
Type: ADME, organism-based
Metric Name: concentration at 4 h (ng/mL)

[[record]]
smiles_notation = "COc1ccc2c(c1OC)C(=O)O[C@@H]2[C@H]1c2c(c(Br)c3c(c2OC)OCO3)CCN1C(F)(F)F"
val = 69.4


----------
Assay: Drug distribution in male Swiss albino mouse brain at 5 mg/kg, iv measured after 0.5 hrs
Assay type: ADME, organism-based
Conditions: read-out: Ct
Metric Name: concentration at 0.5 h (ng/g)

[[record]]
compound = "COc1ccc2c(c1OC)C(=O)O[C@@H]2[C@H]1c2c(cc3c(c2OC)OCO3)CCN1C [NOSCAPINE]"
val = 19.6


----------
Experiment: Cmax in Sprague-Dawley rat at 5 mg/kg, ip
Format: ADME, organism-based
Conditions: in vivo
Metric Name: Cmax (ng/mL)

[[record]]
smiles_notation = "COc1ccc2c(c1OC)C(=O)O[C@@H]2[C@H]1c2c(c(Br)c3c(c2OC)OCO3)CCN1C(F)(F)F"
metric_name = "Cmax"
unit_label = "ng/mL"
val = 152


----------
Experiment: Stability of compound in 0.1M HCl solution at pH 1.0 assessed as parent compound remaining measured after 6 hrs by 1H NMR analysis
Assay type: physicochemical
Settings: read-out: Stability
Metric Name: remaining at 6 h (%)

[[record]]
smiles_notation = "FC(F)(F)N1CCCc2ccccc21"
unit_label = "%"
val = 7


----------
System: U-118-MG
Test: Antiproliferative activity against human U-118-MG cells assessed as inhibition of cell proliferation incubated for 72 hrs by CCK8 assay
Assay type: functional, cell-based
pIC50: −log10 of the molar value.
Metric Name: pIC50

[[record]]
compound = "COc1ccc2c(c1OC)C(=O)O[C@@H]2[C@H]1c2c(c(Br)c3c(c2OC)OCO3)CCN1C(F)(F)F"
value_modifier = "="
val = 5.81

[[record]]
compound = "COc1ccc2c(c1OC)C(=O)O[C@@H]2[C@H]1c2c(cc3c(c2OC)OCO3)CCN1C(F)(F)F"
value_modifier = "="
val = 4.50

[[record]]
compound = "COc1ccc2c(c1OC)C(=O)O[C@@H]2[C@H]1c2c(c(I)c3c(c2OC)OCO3)CCN1C(F)(F)F"
value_modifier = "="
val = 4.76

[[record]]
compound = "COc1ccc2c(c1OC)C(=O)O[C@@H]2[C@H]1c2c(cc3c(c2OC)OCO3)CCN1C [NOSCAPINE]"
value_modifier = "<"
val = 4.00

[[record]]
compound = "COc1ccc2c(c1OC)C(=O)O[C@@H]2[C@H]1c2c(c(Cl)c3c(c2OC)OCO3)CCN1C(F)(F)F"
value_modifier = "="
val = 5.01

[[record]]
compound = "COc1ccc2c(c1OC)C(=O)O[C@@H]2[C@H]1c2c(c(C#N)c3c(c2OC)OCO3)CCN1C(F)(F)F"
value_modifier = "="
val = 4.71

[[record]]
compound = "Cn1nnc2c(C(N)=O)ncn2c1=O [TEMOZOLOMIDE]"
value_modifier = "<"
val = 4.00


----------
Test system: U-87 MG
Experiment: Antiproliferative activity against human U-87 MG cells assessed as inhibition of cell proliferation incubated for 72 hrs by CCK8 assay
Type: functional, cell-based, U-87MG ATCC
Metric Name: IC50

[[record]]
compound = "COc1ccc2c(c1OC)C(=O)O[C@@H]2[C@H]1c2c(cc3c(c2OC)OCO3)CCN1C(F)(F)F"
val = "67.5 µM"

[[record]]
compound = "COc1ccc2c(c1OC)C(=O)O[C@@H]2[C@H]1c2c(c(Br)c3c(c2OC)OCO3)CCN1C(F)(F)F"
val = "7.46 µM"

[[record]]
compound = "COc1ccc2c(c1OC)C(=O)O[C@@H]2[C@H]1c2c(c(C#N)c3c(c2OC)OCO3)CCN1C(F)(F)F"
val = "39.1 µM"

[[record]]
compound = "COc1ccc2c(c1OC)C(=O)O[C@@H]2[C@H]1c2c(c(I)c3c(c2OC)OCO3)CCN1C(F)(F)F"
val = "33.4 µM"

[[record]]
compound = "COc1ccc2c(c1OC)C(=O)O[C@@H]2[C@H]1c2c(c(Cl)c3c(c2OC)OCO3)CCN1C(F)(F)F"
val = "25.8 µM"

[[record]]
compound = "COc1ccc2c(c1OC)C(=O)O[C@@H]2[C@H]1c2c(cc3c(c2OC)OCO3)CCN1C [NOSCAPINE]"
val = "> 100 µM"

[[record]]
compound = "Cn1nnc2c(C(N)=O)ncn2c1=O [TEMOZOLOMIDE]"
val = "> 100 µM"


----------
Experiment: Bioavailability in Sprague-Dawley rat at 5 mg/kg, ip
Assay type: ADME, organism-based
Settings: in vivo
Metric Name: bioavailability (%)

[[record]]
smiles_notation = "COc1ccc2c(c1OC)C(=O)O[C@@H]2[C@H]1c2c(c(Br)c3c(c2OC)OCO3)CCN1C(F)(F)F"
metric_name = "bioavailability"
val = 61.3


The reported measurements were obtained from ChEMBL document CHEMBL6078714.
